Recorded relative viability by entry
Test system: NCI-H2087
assay_explanation: relative viability (nuclei count vs DMSO), 5 days (fraction); higher = more cells survive
cond: first compound 0.01 µM

| molecule | relative viability |
| --- | --- |
| Cc1cn(-c2cc(NC(=O)c3ccc(C)c(Nc4nccc(-c5cccnc5)n4)c3)cc(C(F)(F)F)c2)cn1 [Nilotinib] + Cc1nc(Nc2ncc(C(=O)Nc3c(C)cccc3Cl)s2)cc(N2CCN(CCO)CC2)n1 [Dasatinib] (partner 0.075 µM) | 1.13 |
| Cc1cn(-c2cc(NC(=O)c3ccc(C)c(Nc4nccc(-c5cccnc5)n4)c3)cc(C(F)(F)F)c2)cn1 [Nilotinib] + C[C@]1(O)C[C@@H](c2nc(-c3ccc4ccc(-c5ccccc5)nc4c3)c3c(N)nccn32)C1 [Linsitinib] (partner 1 µM) | 1.08 |
| Cc1cn(-c2cc(NC(=O)c3ccc(C)c(Nc4nccc(-c5cccnc5)n4)c3)cc(C(F)(F)F)c2)cn1 [Nilotinib] + CS(=O)(=O)N1CCN(Cc2cc3nc(-c4cccc5[nH]ncc45)nc(N4CCOCC4)c3s2)CC1 [Pictilisib] (partner 1 µM) | 0.984 |
| Cc1cn(-c2cc(NC(=O)c3ccc(C)c(Nc4nccc(-c5cccnc5)n4)c3)cc(C(F)(F)F)c2)cn1 [Nilotinib] + C[C@@H](Oc1cc(-c2cnn(C3CCNCC3)c2)cnc1N)c1c(Cl)ccc(F)c1Cl [Crizotinib] (partner 1 µM) | 0.947 |

----------
Tested on: LU99A
assay_explanation: relative viability (nuclei count vs DMSO), 5 days (fraction); higher = more cells survive
cond: first compound 2 µM
Recorded relative viability by entry
metric_name: relative viability

| molecule | numeric_result |
| --- | --- |
| Cc1csc(=NC2CCCCC2)n1/N=C/c1ccc(O)c(O)c1O [MIM1] + CC(=O)Nc1cccc(-n2c(=O)n(C3CC3)c(=O)c3c(Nc4ccc(I)cc4F)n(C)c(=O)c(C)c32)c1 [Trametinib] (partner 0.02 µM) | 0.604 |
| Cc1csc(=NC2CCCCC2)n1/N=C/c1ccc(O)c(O)c1O [MIM1] + CS(=O)(=O)CCNCc1ccc(-c2ccc3ncnc(Nc4ccc(OCc5cccc(F)c5)c(Cl)c4)c3c2)o1 [Lapatinib] (partner 2 µM) | 0.779 |
| CN1CCN(CCOc2cc(OC3CCOCC3)c3c(Nc4c(Cl)ccc5c4OCO5)ncnc3c2)CC1 [Saracatinib] + CC(=O)Nc1cccc(-n2c(=O)n(C3CC3)c(=O)c3c(Nc4ccc(I)cc4F)n(C)c(=O)c(C)c32)c1 [Trametinib] (partner 0.02 µM) | 0.459 |
| CN1CCN(CCOc2cc(OC3CCOCC3)c3c(Nc4c(Cl)ccc5c4OCO5)ncnc3c2)CC1 [Saracatinib] + Cc1nc(NC(=O)N2CCC[C@H]2C(N)=O)sc1-c1ccnc(C(C)(C)C(F)(F)F)c1 [Alpelisib] (partner 2 µM) | 0.417 |
| CN1CCN(CCOc2cc(OC3CCOCC3)c3c(Nc4c(Cl)ccc5c4OCO5)ncnc3c2)CC1 [Saracatinib] + CS(=O)(=O)N1CCN(Cc2cc3nc(-c4cccc5[nH]ncc45)nc(N4CCOCC4)c3s2)CC1 [Pictilisib] (partner 1 µM) | 0.299 |
| Cc1csc(=NC2CCCCC2)n1/N=C/c1ccc(O)c(O)c1O [MIM1] + CS(=O)(=O)N1CCN(Cc2cc3nc(-c4cccc5[nH]ncc45)nc(N4CCOCC4)c3s2)CC1 [Pictilisib] (partner 1 µM) | 0.303 |
| CN1CCN(CCOc2cc(OC3CCOCC3)c3c(Nc4c(Cl)ccc5c4OCO5)ncnc3c2)CC1 [Saracatinib] + C[C@@H](Oc1cc(-c2cnn(C3CCNCC3)c2)cnc1N)c1c(Cl)ccc(F)c1Cl [Crizotinib] (partner 1 µM) | 0.39 |
| CN1CCN(CCOc2cc(OC3CCOCC3)c3c(Nc4c(Cl)ccc5c4OCO5)ncnc3c2)CC1 [Saracatinib] + N=C(N)NC(=N)NCCc1ccccc1 [Phenformin] (partner 250 µM) | 0.707 |
| CN1CCN(CCOc2cc(OC3CCOCC3)c3c(Nc4c(Cl)ccc5c4OCO5)ncnc3c2)CC1 [Saracatinib] + C[C@]1(O)C[C@@H](c2nc(-c3ccc4ccc(-c5ccccc5)nc4c3)c3c(N)nccn32)C1 [Linsitinib] (partner 1 µM) | 0.411 |

Data origin, for the record: the supplement of paper PMC10307832
